# study_target: PaMurU (Pseudomonas aeruginosa, UniProt Q9I5U0)
# Construct: gene murU
# Sequence (Q9I5U0 whole entry): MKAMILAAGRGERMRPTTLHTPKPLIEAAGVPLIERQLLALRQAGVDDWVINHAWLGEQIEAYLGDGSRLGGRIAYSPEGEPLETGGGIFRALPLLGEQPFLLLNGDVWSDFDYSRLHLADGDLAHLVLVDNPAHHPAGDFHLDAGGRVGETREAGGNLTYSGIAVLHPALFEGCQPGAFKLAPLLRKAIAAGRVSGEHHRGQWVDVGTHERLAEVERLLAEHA
# assay_explanation: malachite green dual-enzyme assay IC50; target assigned by ESI-MS
# Assay type: biochemical
metric_name: IC50
A bare number is not enough; add the unit after it.

input: Would you mind telling me what IC50 value was observed for `CCCCCCCCCCCCCCCC[N+](C)(C)C` ?
output: 8.25 µM

---

# study_target: PaMurU (Pseudomonas aeruginosa, UniProt Q9I5U0)
# Construct: gene murU
# assay_explanation: malachite green dual-enzyme assay IC50; target assigned by ESI-MS; SUPR-DSF shift +[…] °C
# Type: biochemical
metric_name: pIC50
Bear in mind: pIC50 is minus log10 of a mol/L concentration; give just that figure.

input: Name the recorded pIC50 for Nc1c(/N=N/c2ccc(-c3ccc(/N=N/c4cc(S(=O)(=O)O)c5ccccc5c4N)cc3)cc2)cc(S(=O)(=O)O)c2ccccc12 [compound 2] .
output: 4.85
